# Tested on: human plasma rich in platelet
# MEASUREMENT NOTES: Platelet coagulation-inhibitory activity in vitro, transmittance by aggregometer
# Format: cell-based
# CONDITIONS USED: ADP stimulation (50 μM ADP solution), 37° C., 3 minutes preincubation
No end group written: not given here. sulfated CM‑chitin = sulfated carboxymethyl-chitin (CM-chitin), conjugated to the peptide; sulfated succinylated CM‑chitin = sulfated succinylated CM-chitin; trimellityl CM‑chitin = trimellityl derivative of CM-chitin
Class yes (1): Platelet Coagulation-Inhibitory Action IC50, ADP Stimulation at least 20 µg/mL. Class no (0): Platelet Coagulation-Inhibitory Action IC50, ADP Stimulation below 20 µg/mL.

Consider the following illustrative entries.
SUBSTANCE | ANSWER LABEL
Maleyl Derivative of CM-Chitin Arg-Gly-Asp-Ser (RGDS; also: conjugated to maleyl CM-chitin) [CM--chitin derivative-3] | yes (1)
Sulfated CM-Chitin-Gly-Arg-Gly-Asp-Ser ({sulfated CM‑chitin}-GRGDS) [CM--chitin derivative-14] | no (0)
Trimellityl Derivative of CM-Chitin Arg-Gly-Asp-Ser ({trimellityl CM‑chitin}-RGDS) [CM--chitin derivative-6] | yes (1)
CM-Chitin Arg-Gly-Asp-Ser (RGDS; also: conjugated to CM-chitin) [CM--chitin derivative-18] | yes (1)
Sulfated Succinylated CM-Chitin-Arg-Gly-Asp-Ser ({sulfated succinylated CM‑chitin}-RGDS) [CM--chitin derivative-15] | no (0)

Shifting focus to the substance that follows.
Prompt: Is it the case that Phthaloyl derivative of CM-Chitin Arg-Gly-Asp-Ser (RGDS; also: conjugated to phthaloyl CM-chitin) [CM--chitin derivative-4] has Platelet Coagulation-Inhibitory Action IC50, ADP Stimulation reaching or exceeding 20 µg/mL?
Completion: yes (1)

====

The following substances are shown together with reported Platelet Coagulation-Inhibitory Action IC50, ADP Stimulation values.
# Test system: human plasma rich in platelet
# MEASUREMENT NOTES: Platelet coagulation-inhibitory activity in vitro, transmittance by aggregometer
# Type: cell-based
# CONDITIONS USED: ADP stimulation (50 μM ADP solution), 37° C., 3 minutes preincubation
No end group written: not given here. succinylated CM‑chitin = succinylated carboxymethyl-chitin (CM-chitin), conjugated to the peptide; sulfated succinylated CM‑chitin = sulfated succinylated CM-chitin
The answer is to be given in µg/mL; state only the numeric part.

SUBSTANCE | OBS VALUE
Sulfated Succinylated CM-Chitin-Gly-Arg-Gly-Asp-Ser ({sulfated succinylated CM‑chitin}-GRGDS) [CM--chitin derivative-16] | 12
CM-Chitin-Gly-Arg-Gly-Asp-Ser-Pro [CM--chitin derivative-19] | 19

Prompt: Need Platelet Coagulation-Inhibitory Action IC50, ADP Stimulation of Succinylated CM-Chitin-Arg-Gly-Asp-Ser ({succinylated CM‑chitin}-RGDS) [CM--chitin derivative-2] , thanks.
Completion: 18

====

# System: fibronectin
# MEASUREMENT NOTES: Cell adhesion-inhibitory test against fibronectin (competitive assay, number of adhered cells)
# Assay type: cell-based, human
# CONDITIONS USED: concentration 1.5 mg/ml; endothelium cells of blood vessel; 37° C., one hour; 0 mg/ml control 160
No end group written: not given here. sulfated CM‑chitin = sulfated carboxymethyl-chitin (CM-chitin), conjugated to the peptide; sulfated succinylated CM‑chitin = sulfated succinylated CM-chitin; succinylated CM‑Chitin = succinylated CM-chitin; CM‑Chitin = carboxymethyl chitin
Class Condition met: Cell Adhesion-Inhibitory effect Against Fibronectin (number of adhered cells) at least 70 cell/well. Class Condition not met: Cell Adhesion-Inhibitory effect Against Fibronectin (number of adhered cells) below 70 cell/well.

Consider the following illustrative entries.
SUBSTANCE | ANSWER LABEL
CM-chitin-Arg-Gly-Asp-Ser-Gly-NH2 ({CM‑Chitin}-RGDSG-NH2; also: conjugated to CM-chitin) [CM--chitin derivative-17] | Condition not met
Succinylated CM-Chitin-(Arg-Gly-Asp)5 ({succinylated CM‑Chitin}-RGDRGDRGDRGDRGD) [CM--chitin derivative-12] | Condition met
Sulfated Succinylated CM-Chitin-Arg-Gly-Asp-Ser ({sulfated succinylated CM‑chitin}-RGDS) [CM--chitin derivative-15] | Condition not met
CM-Chitin-Gly-Arg-Gly-Asp-Ser-Pro [CM--chitin derivative-19] | Condition not met
Maleyl Derivative of CM-Chitin Arg-Gly-Asp-Ser (RGDS; also: conjugated to maleyl CM-chitin) [CM--chitin derivative-3] | Condition not met

Prompt: Is it the case that Phthaloyl derivative of CM-Chitin Arg-Gly-Asp-Ser (RGDS; also: conjugated to phthaloyl CM-chitin) [CM--chitin derivative-4] has Cell Adhesion-Inhibitory effect Against Fibronectin (number of adhered cells) reaching or exceeding 70 cell/well?
Completion: Condition not met

Prompt: Is it the case that Sulfated CM-Chitin-Gly-Arg-Gly-Asp-Ser ({sulfated CM‑chitin}-GRGDS) [CM--chitin derivative-14] has Cell Adhesion-Inhibitory effect Against Fibronectin (number of adhered cells) reaching or exceeding 70 cell/well?
Completion: Condition not met

Prompt: Is it the case that Succinylated CM-Chitin-(Arg-Gly-Asp)2 ({succinylated CM‑Chitin}-RGDRGD) [CM--chitin derivative-10] has Cell Adhesion-Inhibitory effect Against Fibronectin (number of adhered cells) reaching or exceeding 70 cell/well?
Completion: Condition met
